All values here come from PubChem BioAssay (NCI).

experimentalProtocol: NCI Yeast Anticancer Drug Screen. Data for the mec2-1 strain (AID 157)
runParameters: S. cerevisiae mec2-1 strain, at 50.0 µM, stronger effect = higher value
Compounds without any hit were thinned out: in the full panel of roughly 79,000, 15% have a hit.
Catalogue of growth inhibition readings, one per entry.
# value in %; strip the unit string

The examples below pair each entry with its known result.
> print(dat)
                                   compound  unitstext  measurement
1  O=C(/C=C(\O)c1ccc(Cl)cc1)C(=O)NN=C(c1ccccc1)c1ccccc1          %         33.7
2  N#C/C(=C\c1c[nH]c2ccccc12)C(=O)c1ccc(O)c(O)c1          %         0.25
3  CC(=O)Oc1ccc2c(OC(C)=O)c(C)cc(OC(C)=O)c2c1          %          5.6
4  O=C(NC(c1ccccc1)C(O)C(=O)OCc1ccc2c(c1)C(=O)c1ccccc1C2=O)c1ccccc1 (stereo not given)          %         15.4
5    Cc1c(C)c2cc3c(=O)c(CCl)coc3c(C)c2oc1=O          %         1.15
6            CCOC(=O)c1oc2ccc(OC)c3c2c1CCC3          %           -1
7  COc1ccc(/C=C2\N=C(N/N=C\C(O)C(O)C(O)C(O)CO)NC2=O)cc1 (stereo not given)          %         -0.3
8  CCCCN=NNc1cn(C2OC(CO)C(O)C2O)c(=O)[nH]c1=O (stereo not given)          %          0.9

Prompt: Value lookup for growth inhibition; key = CC(=S)NNC(=O)c1ccncc1
Response: 6.05

Prompt: Fill in: growth inhibition of COc1cc(CCCOC(=O)/C=C/c2ccc(O)c(O)c2)cc(O)c1O is ___
Response: -18.3

----------
experimentalProtocol: NCI Yeast Anticancer Drug Screen. Data for the mec2-1 strain (AID 157)
runParameters: S. cerevisiae mec2-1 strain, at 50.0 µM, stronger effect = higher value
The panel holds about 79,000 compounds, 15% with a hit somewhere; the sample as a whole holds those more often. Activity calls are given as the source filed them. Rule as the data show it: active = growth inhibition above about 70%; inactive = the rest.
property: growth inhibition

Past entries and their recorded results:
molecule	growth inhibition
CC(=O)Nc1ccc(-c2nnc(SCC(=O)Nc3ccccc3C)o2)cc1	-5.25% (inactive)
CC(CCC(=O)O)C1CCC2C3CCC4CCCCC4(C)C3CCC12C (configuration not stated)	41.9% (inactive)
CCOC(=O)Nc1cccc(Cl)c1Cl	-39.1% (inactive)
CC(=O)OC[C@H]1O[C@@H](O[C@H]2[C@H](OC(C)=O)C=CO[C@@H]2COC(C)=O)C(OC(C)=O)[C@H]2OC(C)(C)O[C@H]21 (some centres not stated)	-14.8% (inactive)

Prompt: For O=C1c2cc(Br)ccc2-c2ccc(Br)c3cccc1c23 , what is its reported growth inhibition?
Response: -20.8% (inactive)

Prompt: Would you mind telling me what growth inhibition value was observed for Cc1cc(N/N=C/c2ccnc3ccccc23)c2cc3c(cc2n1)OCO3 ?
Response: 18% (inactive)

Prompt: Quick one: growth inhibition for Cc1nnsc1-c1nc2ccccc2[nH]1 ?
Response: 1.95% (inactive)

Prompt: What value of growth inhibition has been reported for the following molecule? CCOC(=O)C(=O)Cc1cc(=O)n(C)c2ccccc12
Response: 16.1% (inactive)

Prompt: Recorded growth inhibition of C/C(=N\N=Nc1ccc(N(C)C)cc1)c1ccccc1 , please.
Response: -3.3% (inactive)

----------
experimentalProtocol: NCI Yeast Anticancer Drug Screen. Data for the cln2 rad14 strain (AID 165);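 further: 0% = growth equal to vehicle treated cultures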
runParameters: S. cerevisiae cln2 rad14 strain, at 50.0 µM, stronger effect = higher value
This is part of a sample that, as a whole, favours compounds with a hit. Of some 79,000 tested, about 15% had one in any assay.
property: growth inhibition (%)
Report the figure in % without appending any unit label.

Recorded results for 3 molecules are shown here.
> print(dat)
                                   molecule  measurement
1  Nc1ncnc2c1ncn2C1CCC(CP(=O)(O)O)C1 (stereo not given)        -29.4
2  CCOC(=O)N1CCN(P(=O)(c2ccccc2)N2CCN(C(=O)OCC)CC2)CC1        -31.6
3  CC(C)c1ccc2nc3ccc(C(=O)NCCN(C)C)cn3c(=O)c2c1         2.65

Prompt: Please report the recorded growth inhibition for c1ccc(CCN=C2c3ccccc3-n3cccc32)nc1 .
Response: -28.1

Prompt: Looking for the measured growth inhibition of C=C1C(=O)OC2CC3(C)C=CC(=O)C(=C)C3CC12 (stereo not given) , can you help?
Response: 39.9

Prompt: Look at this molecule and give its reported growth inhibition. COc1ccc(C#N)c(-c2ccccc2)c1
Response: 3.05

Prompt: Which growth inhibition is reported for this molecule? CC(C)(C)c1ccc(OCCCCl)c(CCl)c1
Response: 7.65

Prompt: Could you tell me which growth inhibition is on file for Cc1cccnc1Nc1ncccc1C ?
Response: 14.3

Prompt: Value lookup for growth inhibition; key = O=C(O)c1c(Cl)ccc([N+](=O)[O-])c1Cl
Response: 8.8

Prompt: Please give the measured growth inhibition for this molecule: CN1CCn2c(Br)ccc2C1=O
Response: 8.45

----------
experimentalProtocol: NCI Yeast Anticancer Drug Screen. Data for the cln2 rad14 strain (AID 165);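 further: 0% = growth equal to vehicle treated cultures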
runParameters: S. cerevisiae cln2 rad14 strain, at 50.0 µM, stronger effect = higher value
This is part of a sample that, as a whole, favours compounds with a hit. Of some 79,000 tested, about 15% had one in any assay. The source made the active and inactive calls. Cut-off read from the data, not from the text of the source: active = growth inhibition above about 70%; inactive = the rest.
property: growth inhibition

Some entries whose results are on file:
> print(dat)
                                   molecule           property        measurement
1  CCNc1ccc(N=Nc2ccc(-c3ccc(N=Nc4ccc(NCC)c5ccccc45)c(OC)c3)cc2OC)c2ccccc12  growth inhibition   23.3% (inactive)
2     Cn1c(=O)c2nc(SC3CCCCC3)n(C)c2n(C)c1=O  growth inhibition  -28.3% (inactive)

Prompt: What growth inhibition value was documented for this molecule, O=C(O)CCC12CCC(=O)C=C1NC(=O)CC2 (stereo unspecified) ?
Response: -1.65% (inactive)

Prompt: For the molecule CC(=O)Nc1cc(C(C)=O)ccc1O , what growth inhibition is on record?
Response: -32.7% (inactive)

Prompt: Recorded growth inhibition of O=c1cc(CO)oc(C(Nc2cccc(Cl)c2)c2ccccc2)c1O (stereo unspecified) , please.
Response: -15.2% (inactive)

Prompt: Would you mind telling me what growth inhibition value was observed for CC1=NN2C(=O)CSC2=NC(C)(C)C1 ?
Response: 25.9% (inactive)

----------
Listing of entries alongside the reported growth inhibition.
experimentalProtocol: NCI Yeast Anticancer Drug Screen. Data for the rad50 strain (AID 155);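 further: 0% = growth of vehicle-only cultures of the same strain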
runParameters: S. cerevisiae rad50 strain growth inhibition; at 50.0 µM; stronger effect = higher value
The panel holds about 79,000 compounds, 15% with a hit somewhere; the sample as a whole holds those more often.
Supply the numeric figure in %, leaving out any unit text.

> print(dat)
                                   compound  measurement
1  O=C(CNc1c(Cl)cccc1Cl)NC1C=Cc2ccc(S(=O)(=O)Nc3c(Cl)cccc3Cl)cc2C1=O (stereo unspecified)         36.2
2     O=c1[nH]c(NCc2ccc(Cl)cc2)nc2nc[nH]c12         0.85
3     O=C(/C=C/C(=O)NCCc1ccccc1)NCCc1ccccc1        -13.4

Prompt: Would you kindly share the measured growth inhibition for CC(C)CCCC(C)C1CCC2C3CC=C4C(C)(C)C(OC(=O)c5ccccc5)CCC4(C)C3CCC12C (stereo unspecified) ?
Response: 13.9

Prompt: For the compound Cn1c2c(c(=O)c3c4[nH]c5c(c(=O)c4ccc31)CCCC5)CCCC2 , what growth inhibition is on record?
Response: -10.2

Prompt: What value of measured growth inhibition is listed for CCN1CCCCC(=N\O)/C(=N/O)CCCC1 ?
Response: -12.8

Prompt: Fill in: growth inhibition of CCOC(=O)Nc1ccc(NC(C)=O)cc1 is ___
Response: 2.45

Prompt: For the compound shown here, O=c1[nH]c(CCCc2ccccc2)c(Br)c(=O)[nH]1 , give the reported growth inhibition.
Response: -1.5

Prompt: Given N#Cc1cccc(/C=C\C(=O)c2ccccc2)c1 , state its recorded growth inhibition.
Response: 22.9

Prompt: Suppose we examine the compound C=C(C)COC(CCC)OCC(=C)C ; what growth inhibition value has been reported?
Response: 6.85

Prompt: Find the recorded growth inhibition belonging to COc1ccc(C(=O)Nc2ccn(CCOC(=O)c3ccc(OC)cc3)c(=O)n2)cc1 and report it.
Response: -25.9

----------
Here, each record is paired with measured growth inhibition data.
experimentalProtocol: NCI Yeast Anticancer Drug Screen. Data for the mec2-1 strain (AID 157)
runParameters: S. cerevisiae mec2-1 strain, at 50.0 µM, stronger effect = higher value
Compounds without any hit were thinned out: in the full panel of roughly 79,000, 15% have a hit. Activity calls are given as the source filed them. Rule as the data show it: active = growth inhibition above about 70%; inactive = the rest.

Before answering, review these 8 worked examples.
> print(dat)
                                   compound           property        measurement
1  Nc1nc(CCC(=O)Nc2cccc(C(F)(F)F)c2)cc(-c2ccc3ccccc3c2)n1  growth inhibition  -23.5% (inactive)
2                NC(=O)NC(=O)N/N=C/c1ccccc1  growth inhibition    2.4% (inactive)
3  COc1ccc(C(=O)c2ccccc2)c(OC(=O)Nc2c(Cl)cccc2Cl)c1  growth inhibition  -23.9% (inactive)
4  CC(=O)OCC(OC(C)=O)C(OC(C)=O)C(OC(C)=O)C1OC(=O)C(OC(C)=O)C1OC(C)=O (stereo not given)  growth inhibition    -12% (inactive)
5                             CCOC(=O)N(C)C  growth inhibition   12.8% (inactive)
6       COc1cc(/C=C\c2ccc(SC)cc2)cc(OC)c1OC  growth inhibition   20.6% (inactive)
7  CCNC(=O)CCC(NS(=O)(=O)c1ccc(NC(=O)c2ccc(Cl)cc2)cc1)C(=O)O (stereo not given)  growth inhibition  -4.95% (inactive)
8  O=C(/C=C/c1ccc(O)cc1)NCCc1c[nH]c2ccc(O)cc12  growth inhibition    -10% (inactive)

Prompt: Consider the compound shown here: CN(C)C(CN)CC1=C(CC(CN)N(C)C)CCC1 (stereo not given) What is its recorded growth inhibition?
Response: 5.25% (inactive)

Prompt: Any idea what its growth inhibition is? The compound is Cc1c(C)n(C)c(=S)n(C)c1=S
Response: 4.15% (inactive)

Prompt: Given CCOC(=O)c1cc(Cl)nc(Cl)c1 , state its recorded growth inhibition.
Response: -16.6% (inactive)

Prompt: What value of growth inhibition has been recorded for this entry: O=C1NC(=O)C2(CC3CCCCC3CC2c2ccccc2)N1 (stereo not given)
Response: 13.3% (inactive)

Prompt: I am curious: what growth inhibition value has been reported for CC1=Nc2ccccc2NC(C)(C)C1 ?
Response: 23.4% (inactive)

Prompt: State the recorded growth inhibition for this entry: CCOC(=O)CSc1[nH]c2nc(C)nc(Cl)c2c1C#N
Response: 8.3% (inactive)

Prompt: // returns reported growth inhibition for input Nc1[nH]c(=S)[nH]c(=O)c1N=O
Response: -2.55% (inactive)

Prompt: Which growth inhibition is reported for this compound? c1ccc(C2=NCCc3cc4c(cc32)OCO4)cc1
Response: 0.7% (inactive)

Prompt: Please report the recorded growth inhibition for Cc1ccc(C)c(CNC(=O)C2CCCCC2C(=O)O)c1 (stereo not given) .
Response: 33.6% (inactive)
